For each entry below, report its pIC50 value.
# experimental_target: VIM-1 (Pseudomonas aeruginosa (strain ATCC 15692 / DSM 22644 / CIP 104116 / JCM 14847 / LMG 12228 / 1C / PRS 101 / PAO1))
# assay_notes: biochemical
# condition_parameters: CCF2-FA substrate, 2 hours at 25° C
Scale for pIC50: -log10 of concentration given in mol/L; no unit attached.

Reported pIC50 for Nc1nc2c(-c3ccc(S(=O)(=O)c4ccccc4)c(S(N)(=O)=O)c3-c3nnn[nH]3)cccc2s1 [Example 232] : what is it?
9.27

What do we get for NS(=O)(=O)c1c(S(=O)(=O)C2CNC2)ccc(-c2cnn3c2CCCC3)c1-c1nnn[nH]1.O=C(O)C(F)(F)F [Example 129, 2,2,2-trifluoroacetate] ?
8.91

Would you kindly repeat that for Nc1nc2c(-c3ccc(S(=O)(=O)[C@H]4CN[C@H](CO)C4)c(S(N)(=O)=O)c3-c3nn[nH]n3)cccc2[nH]1 [Example 291] ?
9.27

###

# experimental_target: IMP-1 (Serratia marcescens)
# Sequence (P52699 whole entry, looked up, species assumed): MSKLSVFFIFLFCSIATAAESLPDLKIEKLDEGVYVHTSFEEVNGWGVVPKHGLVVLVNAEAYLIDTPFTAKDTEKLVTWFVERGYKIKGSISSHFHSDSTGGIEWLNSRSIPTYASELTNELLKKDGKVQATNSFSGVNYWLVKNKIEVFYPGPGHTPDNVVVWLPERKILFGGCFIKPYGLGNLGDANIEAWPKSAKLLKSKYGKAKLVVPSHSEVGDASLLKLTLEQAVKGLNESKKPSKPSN
# assay_notes: biochemical
# Format: biochemical
# condition_parameters: CCF2-FA substrate, 2 hours at 25° C; read-out: IMP-1 IC50
Flag rule - IC50 less than 0.6 nM flags MET; the remaining entries get NOT MET.

In plain terms, does "Nc1nc2c(-c3ccc(S(=O)(=O)[C@H]4C[C@@H](N)C4)c(S(N)(=O)=O)c3-c3nn[nH]n3)cccc2s1" come in under 0.6 nM for IC50?
MET

Queued: "C[C@H](N)CS(=O)(=O)c1ccc(-c2cccc3sc(N)nc23)c(-c2nn[nH]n2)c1S(N)(=O)=O"
MET

Now consider "NCCS(=O)(=O)c1ccc(-c2cccc3cnccc23)c(-c2nnn[nH]2)c1S(N)(=O)=O.O=C(O)C(F)(F)F" and answer again.
NOT MET

Can you handle NS(=O)(=O)c1c(S(=O)(=O)C2CNC2)ccc(-c2ccc3ncccc3c2)c1-c1nnn[nH]1.O=C(O)C(F)(F)F [Example 115, 2,2,2-trifluoroacetate] next?
NOT MET

What do we get for "NC[C@H](O)CS(=O)(=O)c1ccc(-c2ccc(N)nc2)c(-c2nn[nH]n2)c1S(N)(=O)=O" ?
NOT MET

Likewise for "NS(=O)(=O)c1c(S(=O)(=O)C2CCNCC2)ccc([C@H]2CC[C@@H](N)CC2)c1-c1nnn[nH]1" ?
NOT MET

What do you get for "Nc1nc2c(-c3ccc(S(=O)(=O)[C@H]4CN[C@H](CO)C4)c(S(N)(=O)=O)c3-c3nn[nH]n3)cccc2s1" ?
MET

Item: "NCCS(=O)(=O)c1ccc(-c2cccc3[nH]c(=O)[nH]c23)c(-c2nnn[nH]2)c1S(N)(=O)=O"
MET

Entry to check: "CN(C)CCS(=O)(=O)c1ccc(-c2cccc3sc(N)nc23)c(-c2nn[nH]n2)c1S(N)(=O)=O"
MET

What do we get for "Nc1n[nH]c2c(-c3ccc(S(=O)(=O)C4CNC4)c(S(N)(=O)=O)c3-c3nn[nH]n3)cccc12" ?
NOT MET

###

Please go through the items and note down their Efflux ratio.
# Tested on: P. aeruginosa expressing IMP-1, efflux+ (MB9798)
# Format: cell-based, Pseudomonas aeruginosa
# condition_parameters: ratio MITC95 PA_9798/MITC95 PA_9799

Endpoint output: Efflux ratio of NCCS(=O)(=O)c1ccc(-c2ccc3c(c2)C(=O)NC3)c(-c2nnn[nH]2)c1S(N)(=O)=O.O=C(O)C(F)(F)F [Example 140] . Value?
4.00

And NCCS(=O)(=O)c1ccc(-c2cccc(NC(=O)CN)c2NC(=O)CN)c(-c2nn[nH]n2)c1S(N)(=O)=O [Example 338] ?
4.00

Same question for C[C@@H](CN)S(=O)(=O)c1ccc(-c2cccc3nc(N)[nH]c23)c(-c2nn[nH]n2)c1S(N)(=O)=O [Example 278] please.
2.00

Proceed to C[S+]([O-])c1ccc(-c2ccc(C3CCNCC3)cc2)c(-c2nnn[nH]2)c1S(N)(=O)=O (stereo not drawn) [Example 235]
8.00

Same lookup for COc1cc(-c2ccc(S(=O)(=O)CCN)c(S(N)(=O)=O)c2-c2nnn[nH]2)cnc1N.O=C(O)C(F)(F)F [Example 169] , please.
15.99

Now consider CC(N)CS(=O)(=O)c1ccc(-c2cccc3sc(N)nc23)c(-c2nn[nH]n2)c1S(N)(=O)=O (stereo not drawn) [Example 269] and answer again.
1.00

Likewise for Cn1nc(N)c2c(-c3ccc(S(=O)(=O)C4CNC4)c(S(N)(=O)=O)c3-c3nnn[nH]3)cccc21 [Example 265] ?
4.00

Same read-out for NS(=O)(=O)c1c(S(=O)(=O)C2CN(C(=O)NC3CC3)C2)ccc(-c2ccc(NS(=O)(=O)C3CC3)cc2)c1-c1nn[nH]n1 [Example 245] ?
8.00

Would you mind doing CNc1ncc(-c2ccc(S(=O)(=O)C3CNC3)c(S(N)(=O)=O)c2-c2nnn[nH]2)cn1.O=C(O)C(F)(F)F [Example 106] as well?
4.00
